# protocolText: Biodistribution of 177Lu-labeled αMSH analogues in mice bearing B16F10 mouse melanoma
# Assay type: in vivo, C57BL/6J mice
# conditionInfo: mouse, bone, iv, total radioactivity; 1 h p.i., C57BL/6J mice, B16F10 melanoma; read-out: Biodistribution, Bone
Please go through the items and note down their tissue uptake at 1 h.
Give bare numbers, in %ID/g.

Here is how some molecules turned out for tissue uptake at 1 h.
CCCC[C@H](NC(=O)CN1CCC(NC(=O)CN2CCN(CC(=O)O)CCN(CC(=O)O)CCN(CC(=O)O)CC2)CC1)C(=O)N[C@H]1CC(=O)NCCCC[C@@H](C(N)=O)NC(=O)[C@H](Cc2c[nH]c3ccccc23)NC(=O)[C@H](CCCNC(=N)N)NC(=O)[C@@H](Cc2ccccc2)NC(=O)[C@H](Cc2c[nH]cn2)NC1=O [^177Lu-labeled CCZ01048, metal not drawn, reference compound]; 0.19
CCCC[C@H](NC(=O)CN1CCC(NC(=O)CN2CCN(CC(=O)O)CCN(CC(=O)O)CCN(CC(=O)O)CC2)CC1)C(=O)N[C@H]1CC(=O)NCCCC[C@@H](C(N)=O)N(C)C(=O)[C@H](Cc2c[nH]c3ccccc23)N(C)C(=O)[C@H](CCCNC(=N)N)N(C)C(=O)[C@@H](Cc2ccccc2)NC(=O)[C@H](Cc2c[nH]cn2)N(C)C1=O [^177Lu-labeled CCZ01099, metal not drawn]; 0.13

We now examine a further molecule.
Query: Answer with reported tissue uptake at 1 h of CCCC[C@H](NC(=O)CN1CCC(NC(=O)[C@H](CCCCNC(=O)CN2CCN(CC(=O)O)CCN(CC(=O)O)CCN(CC(=O)O)CC2)NC(=O)[C@H](CCC(=O)O)NC(=O)CCCc2ccc(I)cc2)CC1)C(=O)N[C@H]1CC(=O)NCCCC[C@@H](C(N)=O)NC(=O)[C@H](Cc2c[nH]c3ccccc23)NC(=O)[C@H](CCCNC(=N)N)NC(=O)[C@@H](Cc2ccccc2)NC(=O)[C@H](Cc2c[nH]cn2)NC1=O [^177Lu-labeled CCZ01082, metal not drawn]
Reply: 0.84

###

# protocolText: Biodistribution of 177Lu-labeled αMSH analogues in mice bearing B16F10 mouse melanoma
# Format: in vivo, C57BL/6J mice
# conditionInfo: mouse, pancreas, iv, total radioactivity; 24 h p.i., C57BL/6J mice, B16F10 melanoma; read-out: Biodistribution, Pancreas
# Method: The B16-F10 mouse melanoma cells were cultured and inoculated in mice as described in Example 1. For biodistribution studies, approximately 1-2 MBq of ^177Lu-labeled αMSH analogues via tail vein under anesthesia. At 1, 4, 24, and 120 h p.i., the mice were euthanized by CO2 inhalation. Organs/tissues were harvested and the radioactivity was measured as described in Example 1.
assayEndpoint: tissue uptake at 24 h (%ID/g)
Answers are plain numbers, in %ID/g.

CCCC[C@H](NC(=O)CN1CCC(NC(=O)CN2CCN(CC(=O)O)CCN(CC(=O)O)CCN(CC(=O)O)CC2)CC1)C(=O)N[C@H]1CC(=O)NCCCC[C@@H](C(N)=O)N(C)C(=O)[C@H](Cc2c[nH]c3ccccc23)N(C)C(=O)[C@H](CCCNC(=N)N)N(C)C(=O)[C@@H](Cc2ccccc2)NC(=O)[C@H](Cc2c[nH]cn2)N(C)C1=O [^177Lu-labeled CCZ01099, metal not drawn]; 0.03
CCCC[C@H](NC(=O)CN1CCC(NC(=O)[C@H](CCCCNC(=O)CN2CCN(CC(=O)O)CCN(CC(=O)O)CCN(CC(=O)O)CC2)NC(=O)[C@H](CCC(=O)O)NC(=O)CCCc2ccc(I)cc2)CC1)C(=O)N[C@H]1CC(=O)NCCCC[C@@H](C(N)=O)N(C)C(=O)[C@H](Cc2c[nH]c3ccccc23)N(C)C(=O)[C@H](CCCNC(=N)N)N(C)C(=O)[C@@H](Cc2ccccc2)NC(=O)[C@H](Cc2c[nH]cn2)N(C)C1=O [^177Lu-labeled CCZ01088, metal not drawn]; 0.1
CCCC[C@H](NC(=O)CN1CCC(NC(=O)[C@H](CCCCNC(=O)CN2CCN(CC(=O)O)CCN(CC(=O)O)CCN(CC(=O)O)CC2)NC(=O)[C@H](CCC(=O)O)NC(=O)CCCc2ccc(I)cc2)CC1)C(=O)N[C@H]1CC(=O)NCCCC[C@@H](C(N)=O)NC(=O)[C@H](Cc2c[nH]c3ccccc23)NC(=O)[C@H](CCCNC(=N)N)NC(=O)[C@@H](Cc2ccccc2)NC(=O)[C@H](Cc2c[nH]cn2)NC1=O [^177Lu-labeled CCZ01082, metal not drawn]; 0.17
CCCC[C@H](NC(=O)CN1CCC(NC(=O)CN2CCN(CC(=O)O)CCN(CC(=O)O)CCN(CC(=O)O)CC2)CC1)C(=O)N[C@H]1CC(=O)NCCCC[C@@H](C(N)=O)N(C)C(=O)[C@H](Cc2c[nH]c3ccccc23)NC(=O)[C@H](CCCNC(=N)N)N(C)C(=O)[C@@H](Cc2ccccc2)NC(=O)[C@H](Cc2c[nH]cn2)NC1=O [^177Lu-labeled CCZ01106, metal not drawn]; 0.03

Now, please, on to the next molecule.
Query: // Input: CCCC[C@H](NC(=O)CN1CCC(NC(=O)[C@H](CCCCNC(=O)CN2CCN(CC(=O)O)CCN(CC(=O)O)CCN(CC(=O)O)CC2)NC(=O)[C@H](CCC(=O)O)NC(=O)CCCc2ccc(I)cc2)CC1)C(=O)N[C@H]1CC(=O)NCCCC[C@@H](C(N)=O)N(C)C(=O)[C@H](Cc2c[nH]c3ccccc23)NC(=O)[C@H](CCCNC(=N)N)N(C)C(=O)[C@@H](Cc2ccccc2)NC(=O)[C@H](Cc2c[nH]cn2)NC1=O [^177Lu-labeled CCZ01118, metal not drawn] . Output its tissue uptake at 24 h only.
Reply: 0.08

###

# protocolText: Biodistribution of 177Lu-labeled αMSH analogues in mice bearing B16F10 mouse melanoma
# Assay type: in vivo, C57BL/6J mice
# conditionInfo: mouse, adrenal glands, iv, total radioactivity; 1 h p.i., C57BL/6J mice, B16F10 melanoma; read-out: Biodistribution, Adrenal glands
Field: tissue uptake at 1 h. Provide a value for each of the molecules that follow.
One number for each entry, in %ID/g.

Solved entries:
CCCC[C@H](NC(=O)CN1CCC(NC(=O)CN2CCN(CC(=O)O)CCN(CC(=O)O)CCN(CC(=O)O)CC2)CC1)C(=O)N[C@H]1CC(=O)NCCCC[C@@H](C(N)=O)NC(=O)[C@H](Cc2c[nH]c3ccccc23)NC(=O)[C@H](CCCNC(=N)N)NC(=O)[C@@H](Cc2ccccc2)NC(=O)[C@H](Cc2c[nH]cn2)NC1=O [^177Lu-labeled CCZ01048, metal not drawn, reference compound]; 0.38
CCCC[C@H](NC(=O)CN1CCC(NC(=O)[C@H](CCCCNC(=O)CN2CCN(CC(=O)O)CCN(CC(=O)O)CCN(CC(=O)O)CC2)NC(=O)[C@H](CCC(=O)O)NC(=O)CCCc2ccc(I)cc2)CC1)C(=O)N[C@H]1CC(=O)NCCCC[C@@H](C(N)=O)NC(=O)[C@H](Cc2c[nH]c3ccccc23)NC(=O)[C@H](CCCNC(=N)N)NC(=O)[C@@H](Cc2ccccc2)NC(=O)[C@H](Cc2c[nH]cn2)NC1=O [^177Lu-labeled CCZ01082, metal not drawn]; 2.62

# next molecule below
Query: Hello, please tell me recorded tissue uptake at 1 h for this one: CCCC[C@H](NC(=O)CN1CCC(NC(=O)[C@H](CCCCNC(=O)CN2CCN(CC(=O)O)CCN(CC(=O)O)CCN(CC(=O)O)CC2)NC(=O)[C@H](CCC(=O)O)NC(=O)CCCc2ccc(I)cc2)CC1)C(=O)N[C@H]1CC(=O)NCCCC[C@@H](C(N)=O)N(C)C(=O)[C@H](Cc2c[nH]c3ccccc23)N(C)C(=O)[C@H](CCCNC(=N)N)N(C)C(=O)[C@@H](Cc2ccccc2)NC(=O)[C@H](Cc2c[nH]cn2)N(C)C1=O [^177Lu-labeled CCZ01088, metal not drawn]
Reply: 3.69

###

# protocolText: Biodistribution of 68Ga-labeled peptide in mice bearing B16F10 mouse melanoma
# Assay type: in vivo, C57BL/6J mice
# conditionInfo: C57BL/6J, kidneys, iv, with BMS 470539 (MC1R-specific inhibitor), 0.5 mg co-injected, total radioactivity, 1 h p.i. blocked, co-injection of 0.5 mg BMS 470539, read-out: Biodistribution, Kidneys
assayEndpoint: tissue uptake at 1 h (%ID/g)
Numbers only, in %ID/g.

Query: Read off the recorded tissue uptake at 1 h for CCCC[C@H](NC(=O)CN1CCC(NC(=O)CN2CCN(CC(=O)O)CCN(CC(=O)O)CCN(CC(=O)O)CC2)CC1)C(=O)N[C@H]1CC(=O)NCCCC[C@@H](C(N)=O)N(C)C(=O)[C@H](Cc2c[nH]c3ccccc23)N(C)C(=O)[C@H](CCCNC(=N)N)N(C)C(=O)[C@@H](Cc2ccccc2)NC(=O)[C@H](Cc2c[nH]cn2)N(C)C1=O [^68Ga-labeled CCZ01099, metal not drawn]
Reply: 2.62
